Attribution: the supplement of paper PMC9170038

- Tested on: MS2 coat protein
- measurement_protocol: apparent KD of MS2 coat protein; designed switch direction (-1 OFF switch, 1 ON switch): 1; higher = weaker reporter binding
- experimental_conditions: input ligand: none
metric: apparent KD of MS2 coat protein

Ask: Endpoint output: apparent KD of MS2 coat protein of AAAAUGGUAUGUUACAUGAGGAUCACCCAUGUACCGUCAUCUGAGGAUAUGGUGAUGUAGAAGAAUCAGAAGGCAGACAUUUAA [AK SSNG3-V2-25] (Eterna round: R96, puzzle: Same State NG 3) . Value?
Result: 0.0341 µM

Ask: Please give the result for ACAUGAGACUGAGGAUAUGUUGUACCUACAUGUGACAUGAGGAUCACCCAUGUGGUAAGUAUGAUACAGAAGGCAGAGAUAUGU [Equivalance 63 - Jieux - Same State NG 2] (Eterna round: R96, puzzle: Same State NG 2) too.
Result: 0.0221 µM

Ask: Please give the result for GACCGCGAGGAAGGAUAUGGAGCCUUAUUGGCUCCAGAAGGUCCAUAAAGGACAUGAGGAUCACCCAUGUGGGUUGAAGCGGUC [Fiskers NG1ss - 38] (Eterna round: R96, puzzle: Same State NG 1) too.
Result: 0.173 µM

Ask: Please give the result for GGAGCCGGCCUAGGAUAUUUCAUUAAAAAACAUGAGGAUCACCCAUGUAGGCCAGAAGGCCUUGGGAAGAAGGAGGUCGGCUCC [Loop Effect - U24] (Eterna round: R96, puzzle: Same State NG 2) too.
Result: 0.0246 µM

* * *

Field: apparent KD of MS2 coat protein. Provide a value for each of the sequences that follow.
- System: MS2 coat protein
- measurement_protocol: apparent KD of MS2 coat protein; designed switch direction (-1 OFF switch, 1 ON switch): -1; higher = weaker reporter binding
- experimental_conditions: Eterna round: R95; input ligand: microRNA oligo, concentration not stated
Give the number; nM is assumed, so skip it.

Ask: Endpoint output: apparent KD of MS2 coat protein of GUGUACAGAGGAUAUGCACGAGUAGUUACGAAAGUAACUACACAUGAGGAUCACCCAUGUAGAAGGCUGUACAC [Dot plot directed v1] (puzzle: Exclusion 2) . Value?
Result: 13.3

Ask: Please give the result for ACUAGAUGAGGAUAUGCAUGUUUUCGUGUUCUUCUAGAUUAACAUGAGGAUCACCCAUGUAGAAGGCGUCAAUU [Exclusion 2 - 28] (puzzle: Exclusion 2) too.
Result: 48

Ask: Please give the result for ACAAGCGAAAGGCUCGUCUUAUUUUUGUAGAGGUCCUAAACAUGAGGAUCACCCAUGUAGUGGCGAUGGUGGAGGUA [JR_SV3TOV2_Sub068] (puzzle: Sensor v3, turn-off variant 2) too.
Result: 134

Ask: Please give the result for AGUACUGACGCGUCGGUGUUAGUACAAUAAGCUUGUGAAACAUGAGGAUCACCCAUGUCCUCAUAAGCUCGUCUUAU [salish99_TOv2_r3_082] (puzzle: Sensor v3, turn-off variant 2) too.
Result: 720

Ask: Please give the result for AAUCCACAUGAGGAUCACCCAUGUCAGGAUAUCGUGUCGCGGGUUUCGGUCCGUGAUGCGAGAAGGGACGGCUG (puzzle: Exclusion 1) too.
Result: 27.4

Ask: Please give the result for GGUGCGUAUGUGAGGAUAUGCUGGUCCUUGGCUCGGCAGAAGGCACAUGAGGAUCACCCAUGUGGUGUCGUACU [salish99_Bmod_ex4_068] (puzzle: Brourd's mod of Exclusion 4) too.
Result: 96.8

Ask: Please give the result for CCUCCACAUGAGGAUCACCCAUGUCAGGAUAUCGUGUGCGCGUUUUCGGUCUUUCGCGCGAGAAGGGACGUCUG (puzzle: Exclusion 1) too.
Result: 24

Ask: Please give the result for GCAUCCAAUGUGAGGAUAUACCUCUGGAUACAUAGGUAGAAGGCACAUGAGGAUCACCCAUGUUCCAAGGAUGC [Fiskers BMX 4 - 30] (puzzle: Brourd's mod of Exclusion 4) too.
Result: 65

Ask: Please give the result for CUCCUCCCGAAGGAUAUCCACGCCAACUUCGUAGGAGAAGGUCGGACAUGAGGAUCACCCAUGUGGCCAUGGUU [Gezateza] (puzzle: Exclusion 6) too.
Result: 16

Ask: Please give the result for GGAGCGAUUCUCUUAGUUAACAUGAGGAUCACCCAUGUGUACAAGCUCUUAUUUUGCUCGUCUUACCGAGAGUUGCC [Tienve] (puzzle: Sensor v3, turn-off variant 1) too.
Result: 74.3

Ask: Please give the result for CCAAGCUGUGUGAGGAUAUGCUGGUCCUUGGAUCAGCAGAAGGCACAUGAGGAUCACCCAUGUGAAAAGCUUGG [Mat - Exclusion 4 - JL Mod - D92] (puzzle: Brourd's mod of Exclusion 4) too.
Result: 13.8

Ask: Please give the result for AGUACUAACACGAAAGUGUUAGUACAAUAAGCUUGUAAAACAUGAGGAUCACCCAUGUCCUCAUAAGCUCGUCUUAU [Mat - Sensor v3 - Turn-off var 2 - D47] (puzzle: Sensor v3, turn-off variant 2) too.
Result: 11.5

Ask: Please give the result for AAGAAACAUGAGGAUCACCCAUGUGAGGAUAUGUAAAAUAAAAGAAAAUAAAGAAUAAACAGAAGGCACAAAGG [Mat - Mod of Hog D23] (puzzle: Exclusion 1) too.
Result: 46.5

Ask: Please give the result for GACGAGUGAGGAUAUGGUGAGUAGUGCCUGAGCGCUGCUCACCAGAAGGCACAUGAGGAUCACCCAUGUAUGUC [Mat - Exclusion 4 - Mod of JL - D11] (puzzle: Exclusion 4) too.
Result: 13.2

Ask: Please give the result for UUUUUAUUUUUUUAUUUUGACAUGAGGAUCACCCAUGUCACGAGCAGAUCUUCAUGCAAGCUUUUUGCUCGUCUUAU [Sensor v3 - Turn-off variant 1 - 40] (puzzle: Sensor v3, turn-off variant 1) too.
Result: 141

Ask: Please give the result for GAUAAGGGAGGAUAUACGGAACGGUUUAUGCUCAGUGAGGCACAUGAGGAUCACCCAUGUAGAAGGCCCGACAG [Gezaerti] (puzzle: Exclusion 2) too.
Result: 25.6

Ask: Please give the result for ACCUCACAUGAGGAUCACCCAUGUCAGGAUAUACAAGAAAAUAACCGGAAAGAACGGAGUAGAAGGGACAUAAG [Zatigeri] (puzzle: Exclusion 1) too.
Result: 15.3

Ask: Please give the result for GGUUAUUGCAAGGAUAUGCUAUUAUUUUAUUUUGCAGAAGGUGCAACAUGAGGAUCACCCAUGUUGGAGGGUUU [JR_E6_Sub024] (puzzle: Exclusion 6) too.
Result: 17.9

Ask: Please give the result for GUGAAACAUGAGGAUCACCCAUGUGAGGAUAUGAUUUAGUAAUGAUGAAAGUAAAUAUUCAGAAGGCACAAUGG [Mat - Mod of JL D71] (puzzle: Exclusion 1) too.
Result: 92.7

Ask: Please give the result for CCAUGCAGUGUGAGGAUAUGCUGGUCCUUGGAUCAGCAGAAGGCACAUGAGGAUCACCCAUGUGAAUAGCGUGG [Mat - Exclusion 4 - JL Mod - D84] (puzzle: Brourd's mod of Exclusion 4) too.
Result: 36.6

Ask: Please give the result for GGUCGGCGAGGAUAUACAUGAGGAUCACCCAUGUGAUAGAGUGCACGCGUACGUGUAUGUAGAAGGCGCUGACG [JL-ex3-3.29 salish99 mod] (puzzle: Exclusion 3) too.
Result: 34.2

* * *

- System: MS2 coat protein
- measurement_protocol: apparent KD of MS2 coat protein; higher = weaker reporter binding
- experimental_conditions: Eterna round: R107; input ligand: theophylline 20 uM
Field: apparent KD of MS2 coat protein. Provide a value for each of the sequences that follow.
Give the number; nM is assumed, so skip it.

Ask: Endpoint output: apparent KD of MS2 coat protein of UAAUAAAUAAAUCCAAGGUGAAGGUCAGAUACCAGCCAGAUAACUGGCCCUUGGCAGCUGAAUAAGCUUGAGGAUCACCCAAGUA [TheoAS 26 #OpenEnded #MS2Late #AlternativeMS2] . Value?
Result: 68.4

Ask: Please give the result for CGAUAGGGUCAAUACCUAAUCAUAUCUGAAGGAGCGUGGAUAUACACAGGUAGGUCGCAGAAUCACAUGAGGAUCACCCAUGUCC [Same State Arginine A GF13] too.
Result: 127

Ask: Please give the result for UAUAUAUAUAUUGAUACCAGCAGAGAAAACGUUUAUCCUAACAUGAGGAUCACCCAUGUAUGCCCUUGGCAGCGAUAUAUAUAUA [8.C] too.
Result: 31.3

Ask: Please give the result for AAUCGUAAGGCGGCCGCCACUACACAUGAGGAUCACCCAUGUCUCGCGGGCUUGCGUUGGGAUAGUAGGACCGGGCCAGUAAUAA [Exclusion - Tryptophan B (Freestyle 13)] too.
Result: 33.7

Ask: Please give the result for ACGACAUGAGGAUCACCCAUGUACUCUGAAGGAGCGUCGAUUACGACAGGUAGGUCGCAGGCUAAGGAUGGUGAUGCUCAAGACG [Exclusion Arginine A GF8] too.
Result: 90.4

Ask: Please give the result for ACAUGAGGAUCACCCAUGUAGCCUAGGGAAGGAGCGGCGUAAGAGCCAGGUAGGUCGCCCGCAUGAGGAUCACCCAUGUCGAGGG [Same State Arginine A GF10] too.
Result: 40.9

Ask: Please give the result for GUAGCUGAGUGUGAUACCAGAAACGACGUCCUUUAUCAUAACAUGAGGAUCACCCAUGUCUUCCCUUGGCAGCACUUUUCGGUCU [theeternabot_exclusion_MS2_Theo_B_24] too.
Result: 53.6

Ask: Please give the result for UCAUGCAGGUCGGCCGCCACUACACACAUGAGGAUCACCCAUGUAGUUACUGGGUGAAGUGGCAGUAGGACCGGGACCUGCACAU [Brourdmod16] too.
Result: 369

Ask: Please give the result for CCUAUGCAGUCGGCCGCCACUGAUAAAAUUAUUUUUACCUCAGAAACAUGAGGAUCACCCAUGUACAGGACCGGGACUGUAUAGG [Ex Tryptophan B 17] too.
Result: 20.1

Ask: Please give the result for CUAUUGAUAGCGGCCGCCACUUACUCAUGAGGUAACAACAUGAGGAUCACCCAUGUUUGAGGAUCAAGGACCGGGCUAUUGAUAG [AstrosSSTryB#13] too.
Result: 33.9

Ask: Please give the result for AAUUACAUGAGGAUCACCCAUGUGGCACAACGAGGACCGGUACGGCCGCCACUCGGUGCUGUACCACAAAACAUGCACGGGAAAG [theeternabot_sameState_MS2_Trp_A_6] too.
Result: 81.4
